target: sigma receptors (Cavia porcellus); construct: Brain tissue was prepared from male Hartley guinea pigs; from tissue; host or cells: guinea pig brain membranes; assay: sigma receptor binding, [^3 H]-(+)-pentazocine, guinea pig brain membranes
property: Ki (nM)
Answer format: numeric, nM implied, no suffix.

For record C[C@@H]1CCN(C)[C@@H](C)[C@]1(C)CCCOCC1CC1 (relative stereo) [Example 1c] the listed Ki is 197

###

target: sigma receptors (Cavia porcellus); construct: Brain tissue was prepared from male Hartley guinea pigs; from tissue; host or cells: guinea pig brain membranes; test: sigma receptor binding, [^3 H]-(+)-pentazocine, guinea pig brain membranes; conditions: 2.5 h; inhibition of binding at 10 μM; [^3 H]-(+)-pentazocine approximately 0.5 nM, 37° C., 150 min; read-out: [^3 H] (+)-Pentazocine Percent Inhibition
property: inhibition at 10 µM
Enter the number, and then the unit.

Below are worked cases with known answers.
molecule	inhibition at 10 µM
CC(C)N1CC[C@@H](C)[C@@](C)(CCCOCC2CC2)[C@@H]1C (relative stereo) [Example 5b]	91%
CC(C)N1CC[C@@H](C)[C@@](C)(CCCO)[C@@H]1C (relative stereo) [Example 5a]	17%
C[C@@H]1CCN(C)[C@@H](C)[C@]1(C)CCCO (relative stereo) [Example 1b]	42%

Per the record, C=CCOCCC[C@]1(C)[C@H](C)CCN(C)[C@H]1C (relative stereo) [Example 6] has inhibition at 10 µM of 89%

// inhibition at 10 µM lookup, molecule = C[C@@H]1CCN(Cc2ccccc2)[C@@H](C)[C@]1(C)CCO (relative stereo) [Example 8b] , result: 85%

The value of inhibition at 10 µM measured for the molecule CCCN1CC[C@@H](C)[C@@](C)(CCCOCC2CC2)[C@@H]1C (relative stereo) [Example 3f] turned out to be 99%

###

target: sigma receptors (Cavia porcellus, UniProt Q60492); construct: Brain tissue was prepared from male Hartley guinea pigs; from tissue; host or cells: guinea pig brain membranes; assay: sigma receptor binding, [^3 H]-(+)-pentazocine, guinea pig brain membranes; details: 2.5 h; inhibition of binding at 10 μM; [^3 H]-(+)-pentazocine approximately 0.5 nM, 37° C., 150 min; read-out: [^3 H] (+)-Pentazocine Percent Inhibition
Sequence (Q60492 whole entry): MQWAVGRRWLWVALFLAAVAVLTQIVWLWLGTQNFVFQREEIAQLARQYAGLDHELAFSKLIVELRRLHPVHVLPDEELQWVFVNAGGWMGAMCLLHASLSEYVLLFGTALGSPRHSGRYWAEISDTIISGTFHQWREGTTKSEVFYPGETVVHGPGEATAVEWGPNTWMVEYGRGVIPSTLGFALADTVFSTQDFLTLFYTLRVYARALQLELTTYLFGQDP
property: inhibition at 10 µM (%)
Field: numeric (%). Do not append units.

Reference set, count: 2
compound	property	experimental_result
C=CCOCC[C@]1(C)[C@H](C)CCN(Cc2ccccc2)[C@H]1C (relative stereo) [Example 9]	inhibition at 10 µM	99
C#CCOCCC[C@]1(C)[C@H](C)CCN(C)[C@H]1C (relative stereo) [Example 7]	inhibition at 10 µM	76

Here is another compound to look at.
Field inhibition at 10 µM (entry C[C@@H]1CCN(C)[C@@H](C)[C@]1(C)CCCOCC1CC1 (relative stereo) [Example 1c] ) reads 94
